# Tested on: SF-539 CNS
# EXPERIMENT_DESCRIPTION: NCI tumour cell line growth inhibition, 48 h; in the data active = GI50 below about 0.43 µM; inactive = the rest
Give your call using only these classes: 1 = active, -1 = inactive

-- ask So what was the verdict on [N-]=[N+]=NCCCn1c2c(c3ccc([N+](=O)[O-])cc3c1=O)C(=O)c1cc(F)ccc1-2 in this test?
-- reply -1

-- ask // next record Cc1cc(N2CCOCC2)nc(N(CCCNc2ccnc3cc(Cl)ccc23)Cc2ccco2)n1
-- reply -1

-- ask // next record CC(=O)O[C@H]1[C@@H]2OC(=O)C(CSc3ccccc3)[C@@H]2C[C@H]2O[C@]2(C)CC/C=C(\C)CCC[C@@H]1C (some centres not stated)
-- reply -1

-- ask // next record N#C/C(=C\c1ccc(Br)cc1)n1nnc2cc(Cl)c(Cl)cc21
-- reply -1

-- ask // next record CO/N=C(\COc1ccc2oc(-c3ccccc3)cc(=O)c2c1)c1ccc(OC)cc1
-- reply -1

-- ask // next record CCc1ccc(C(=Nc2ccc(N(C)C(=O)CN3CCN(C)CC3)cc2)c2c(O)[nH]c3ccc(C(=O)OC)cc23)cc1
-- reply 1

-- ask // next record COC(=O)c1cc2c3ccccc3[nH]c2c2sccc12
-- reply -1

###

Hi there, I'd appreciate the recorded TGI for every entry that follows.
# Tested on: RXF-631 renal
# EXPERIMENT_DESCRIPTION: NCI tumour cell line growth inhibition, 48 h

-- ask Request the reported TGI associated with C=C(C(=C)N1N=NC2C3CCC(C3)C21)N1N=NC2C3CCC(C3)C21 (stereo not drawn)
-- reply > 100 µM

-- ask // next record COC(=O)C(Br)C1CCc2ccccc21 (stereo not drawn)
-- reply > 100 µM

-- ask // next record C=C1C(OC(=O)/C=C/c2ccccc2)CC(OC(C)=O)C2(C)C1CC1CC(OC(C)=O)C(C)=C(C(OC(C)=O)C2OC(C)=O)C1(C)C (stereo not drawn)
-- reply > 100 µM

###

# System: CCRF-CEM leukemia
# EXPERIMENT_DESCRIPTION: NCI tumour cell line growth inhibition, 48 h
Kindly return YES if reported TGI is no lower than 70 µM; return NO if it is lower.

-- ask Is the recorded value of TGI equal to or greater than 70 µM for this compound? CCOC(=O)c1cnc2sc3ccc4ccccc4c3n2c1=O
-- reply YES

-- ask // next record CCN(CC)C1C(=O)NC1C#Cc1ccccc1 (configuration not stated)
-- reply YES

-- ask // next record CC(NC(=O)c1ccc(NP(=O)(OCc2ccc([N+](=O)[O-])o2)N(C)CCCCCl)cc1)c1ccc(OCC2CCCCC2)c(C(N)=O)c1 (configuration not stated)
-- reply NO

-- ask // next record CCOC(=O)c1c(C)n(C)c2c1cc(O)c1[nH]c3c(c12)CCCC3
-- reply NO

-- ask // next record O=C(c1ccccc1)C1C(c2ccccc2)N1S(=O)(=O)c1ccccc1 (configuration not stated)
-- reply YES

-- ask // next record CCCCCCCCCCCCCCCCCCOCC(CCP(=O)(CP(=O)(O)O)Oc1ccccc1)OCCCCCCCCCCCCCCCCCC (configuration not stated)
-- reply YES

-- ask // next record CC(=O)O[C@@]1(C)[C@@H](C)C(=O)O[C@@H]2CCN3CC=C(COC(=O)[C@]1(C)O)[C@H]23
-- reply YES

-- ask // next record ONC1=Nc2ccccc2C(=S)N2CSCC12 (configuration not stated)
-- reply YES

-- ask // next record C[C@]12CC[C@@H]3c4ccc(O)cc4CC[C@H]3[C@@H]1CC[C@@H]2OC(=O)CCc1ccccc1
-- reply NO

-- ask // next record C=C1C(=O)O[C@H]2[C@H]1CC/C(COC(=O)C(C)c1ccc(CC(C)C)cc1)=C\CC[C@@]1(C)O[C@@H]21 (some centres not stated)
-- reply NO

-- ask // next record CO/N=C(\COc1ccc2oc(-c3ccccc3)cc(=O)c2c1)c1ccc(OC)cc1
-- reply YES

-- ask // next record O=C(O/N=C1/CCC/C1=C\c1ccccc1)c1ccc(Cl)c(Cl)c1
-- reply YES

-- ask // next record C[N+](C)(C)c1cc2c(nn1)Nc1ccccc1S2
-- reply NO

-- ask // next record [N-]=[N+]=NCCCn1c2c(c3ccc([N+](=O)[O-])cc3c1=O)C(=O)c1cc(F)ccc1-2
-- reply NO

-- ask // next record N#Cc1c(N)nc(N2CCOCC2)c(C#N)c1-c1ccccn1
-- reply YES

###

# System: NCI-H522 lung
# EXPERIMENT_DESCRIPTION: NCI tumour cell line growth inhibition, 48 h; in the data active = GI50 below about 0.43 µM; inactive = the rest
Where a SMILES comes first, the peptide text is derived from it. [ ]: non-standard residue; d: D form. The star is where a group is joined. dTle = CC(C)(C)[C@@H](N)C(=O)O; 4Abz = Nc1ccc(C(=O)O)cc1; NHOH = ON*
Give your call using only these classes: T (active), F (inactive)

-- ask So what was the verdict on Cc1cn2c(/C=N/N=C(N)N)c(-c3ccccn3)nc2s1 in this test?
-- reply F

-- ask // next record CCc1ccc(C(=Nc2ccc(N(C)C(=O)CN3CCN(C)CC3)cc2)c2c(O)[nH]c3ccc(C(=O)OC)cc23)cc1
-- reply F

-- ask // next record C[C@@H](NC(=O)[C@H](NC(=O)[C@@H]1CCCN1C(=O)CNC(=O)c1ccc(N)cc1)C(C)(C)C)C(=O)NO (H-[4Abz]GP[dTle][dA]-{NHOH})
-- reply F

-- ask // next record NS(=O)(=O)NCCNc1nonc1C(=Nc1ccc(F)c(Br)c1)NO
-- reply F

-- ask // next record O=C(/C=C/C12c3ccccc3C(c3ccccc31)C1C(=O)NC(=O)C12)c1ccc(F)cc1 (stereo not given)
-- reply F

-- ask // next record CC1(C)NCCC[C@]2(C)[C@H]3CC[C@@H]4[C@H]5[C@H](C(=O)/C=C/c6ccccn6)CC[C@]5(CO)CC[C@@]4(C)[C@]3(C)CC[C@@H]12
-- reply F

-- ask // next record O=C1/C(=C/c2ccc(Cl)cc2)CCC/C1=C\c1ccc(Cl)cc1
-- reply F

-- ask // next record CC(=[N-])N1CCC[C@@H](Nc2c3ccccc3nc3ccccc23)C1.[Cl][Pt].[NH-]CCC[NH-]
-- reply T

-- ask // next record [N-]=[N+]=NCCCn1c2c(c3ccc([N+](=O)[O-])cc3c1=O)C(=O)c1cc(F)ccc1-2
-- reply F

-- ask // next record CCCCCCCCCNC(=O)/C=C/c1ccc(O)c(O)c1
-- reply F

###

# Tested on: SK-MEL-2 melanoma
# EXPERIMENT_DESCRIPTION: NCI tumour cell line growth inhibition, 48 h
PROPERTY_LABEL: TGI

-- ask Request the reported TGI associated with OC(c1ccc2c(c1)OCO2)c1ccc2c(c1)OCO2
-- reply > 100 µM

-- ask // next record COc1ccc(C2=C(N)c3ncccc3C2=O)cc1
-- reply > 100 µM

-- ask // next record CN(C)c1nncc2n[nH]nc12
-- reply > 100 µM

###

# Test system: 786-0 renal
# EXPERIMENT_DESCRIPTION: NCI tumour cell line growth inhibition, 48 h; in the data active means GI50 below about 0.43 µM; inactive means the rest
Give your call using only these classes: yes (1) (active), no (0) (inactive)

-- ask So what was the verdict on CCCN(CCC)c1ccc(/C=N/NC(=O)c2cccnc2)c(OC)c1 in this test?
-- reply no (0)

-- ask // next record Cc1ccc(NC(=O)CSc2nnc3n(Cc4ccccc4)c(=O)c4c(C)c(C(N)=O)sc4n23)cc1
-- reply no (0)

-- ask // next record CC(=O)O[C@H]1[C@@H]2OC(=O)C(CSc3ccccc3)[C@@H]2C[C@H]2O[C@]2(C)CC/C=C(\C)CCC[C@@H]1C (stereo partly drawn)
-- reply no (0)

-- ask // next record CCc1ccc(C(=Nc2ccc(N(C)C(=O)CN3CCN(C)CC3)cc2)c2c(O)[nH]c3ccc(C(=O)OC)cc23)cc1
-- reply yes (1)

-- ask // next record CC([C@H]1CCC2C3CCC4C[C@@H](N)CC[C@]4(C)C3CC[C@@]21C)N(C)C (stereo partly drawn)
-- reply no (0)

-- ask // next record O=C(Nc1cccc(Cl)c1)c1cccc(NC2=C(Cl)C(=O)N(Cc3ccccc3)C2=O)c1
-- reply no (0)

-- ask // next record CN1CCN(c2ccc(NC(=O)c3cncnc3Nc3ccc(OCc4ccccn4)c(Cl)c3)cc2)CC1
-- reply no (0)

-- ask // next record CCC(=O)Nc1ccc(C)c(-c2ccc(C(=O)NCC3CC3)cc2)c1
-- reply no (0)

###

# System: NCI-H23 lung
# EXPERIMENT_DESCRIPTION: NCI tumour cell line growth inhibition, 48 h
PROPERTY_LABEL: TGI

-- ask What TGI appears in the records for this compound with NCI-H23 lung? C[N+](C)(C)CC(=O)N/N=C(\C(=O)NC1=C(Cl)C(=O)c2ccccc2C1=O)C(C#N)c1nc(-c2ccc([N+](=O)[O-])cc2)cs1 (stereo not given)
-- reply 11.4 µM

-- ask // next record CC1(C)N=C(N)N=C(N)N1c1cccc(C(=O)Nc2ccc(S(=O)(=O)F)cc2)c1
-- reply > 100 µM

-- ask // next record N#Cc1cc(S(=O)(=O)Nc2nnc(-c3ccccc3)c(-c3ccccc3)n2)c(SCc2ccccc2)cc1Cl
-- reply > 100 µM

-- ask // next record C[N+](C)(C)c1cc2c(nn1)Nc1ccccc1S2
-- reply > 100 µM

-- ask // next record O=c1c(-c2ccccc2F)coc2cc(F)ccc12
-- reply > 100 µM
